# target.under.test: human MC4R (Homo sapiens)
# Construct: expressed in transfected cells; host or cells: HEK293/MC4R/CRE-GFP
# Sequence (P32245 whole entry): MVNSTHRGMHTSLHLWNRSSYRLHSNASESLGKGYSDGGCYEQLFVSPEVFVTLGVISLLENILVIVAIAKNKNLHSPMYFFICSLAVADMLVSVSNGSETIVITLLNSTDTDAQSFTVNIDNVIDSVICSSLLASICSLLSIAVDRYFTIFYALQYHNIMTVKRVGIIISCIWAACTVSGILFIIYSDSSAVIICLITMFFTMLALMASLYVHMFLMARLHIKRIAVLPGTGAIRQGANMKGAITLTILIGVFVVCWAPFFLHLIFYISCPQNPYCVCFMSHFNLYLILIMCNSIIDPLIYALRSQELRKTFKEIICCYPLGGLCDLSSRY
# test.description: cAMP accumulation assay (HTRF), antagonist activity at MC4R
# Assay type: cell-based
# recorded.conditions: dose-response fit, MC4R
Positions of bridges follow the written chain, without caps; N, C: chain ends. Non-standard residues stand in square brackets, D forms with d. Residues, ends and D or L forms follow the SMILES beside them. d2Nal = N[C@H](Cc1ccc2ccccc2c1)C(=O)O; Nle = CCCC[C@H](N)C(=O)O
measure: Hill Coefficient

Hill Coefficient recorded for this molecule, CCCC[C@H](NC(C)=O)C(=O)N[C@H]1CC(=O)NCCCC[C@@H](C(=O)N[C@@H](C(=O)N2CCC[C@@H]2C(N)=O)C(C)C)NC(=O)[C@H](Cc2c[nH]c3ccccc23)NC(=O)[C@H](CCCNC(=N)N)NC(=O)[C@@H](Cc2ccc3ccccc3c2)NC(=O)[C@H](Cc2c[nH]cn2)NC(=O)[C@@H]2CCCN2C1=O [Peptide D1] (Ac-[Nle]DPH[d2Nal]RWK[dV][dP]-NH2; lactam 2-8) , is 0.55

====

# target.under.test: human MC3R (Homo sapiens)
# Construct: expressed in transfected cells; host or cells: HEK293/CRE-luc/MC3R
# Sequence (P41968 whole entry): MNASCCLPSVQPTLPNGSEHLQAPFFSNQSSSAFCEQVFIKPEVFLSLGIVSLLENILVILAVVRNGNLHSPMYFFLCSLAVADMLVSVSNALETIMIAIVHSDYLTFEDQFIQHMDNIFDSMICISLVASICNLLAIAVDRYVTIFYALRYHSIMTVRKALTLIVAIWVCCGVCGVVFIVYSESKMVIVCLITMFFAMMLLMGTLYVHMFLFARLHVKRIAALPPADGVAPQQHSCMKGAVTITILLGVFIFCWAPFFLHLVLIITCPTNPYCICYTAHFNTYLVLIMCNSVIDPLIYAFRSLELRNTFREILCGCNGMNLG
# test.description: cAMP accumulation assay (HTRF), antagonist activity at MC3R
# Type: cell-based
# recorded.conditions: dose-response fit, MC3R
Positions of bridges follow the written chain, without caps; N, C: chain ends. No end group written: not given here.
Top (%) under 10% gets Y, anything at or over 10% gets N.

substance: VDPFFRWKVP [Peptide B9]
qualitative.label: Y
--
substance: IDPFFRWKVP [Peptide B8]
qualitative.label: Y
--
substance: Leu-c(Asp-Pro-Phe-Phe-Arg-Trp-Lys)-Val-Pro (LDPFFRWKVP; lactam 2-8) [Peptide B3]
qualitative.label: N
--
substance: LDPWRWKVP [Peptide C7]
qualitative.label: Y
--
substance: IPWRWVP [Peptide C5]
qualitative.label: Y

# input for lookup
Field: below-cutoff. Rule: recorded Top (%) strictly less than 10%. Subject: VDPWRWKVP [Peptide C9]
Y
